Molecular target: T1, HLA-A*01:01 (human)
T1 construct: Peptide-receptive MHC monomer made by UV cleavage of a UV-sensitive peptide
Assay: UV-ligand exchange, anti-b2m ELISA; exchange yield grade (+ >10%, ++ >20%, +++ >50, ++++ >75%)
Consider the following binders and their measured peptide exchange yield readings.

>  <BINDER>
FSDKELAAY

>  <peptide exchange yield>
> 75%

$$$$
>  <BINDER>
VLDSHIHAY

>  <peptide exchange yield>
50 to 75%

$$$$
>  <BINDER>
VTDLEMPHY

>  <peptide exchange yield>
> 75%

$$$$
